- assayed_system: T1, TWEAKR on human cells (NCI-H292, 786-O, A498, SK-HEP-1, HEK293) (human, UniProt Q9NP84 28-129)
- T1 construct: also called TNFRSF12A; FN14
- T1 sequence: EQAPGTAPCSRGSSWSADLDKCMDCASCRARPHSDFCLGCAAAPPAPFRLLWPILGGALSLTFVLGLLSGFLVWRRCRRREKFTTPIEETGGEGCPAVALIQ
- procedure_details: flow cytometry on NCI-H292 cells, dose curve from 10 ug/ml in 1:5 steps, anti-kappa-FITC secondary
Catalogue of pEC50 readings, one per entry.
Scale explanation: pEC50 corresponds to minus log10 of a concentration expressed in moles per litre.

| binder | pEC50 |
| --- | --- |
| TPP-7007 (antibody, human IgG1, kappa, V domains shown, also called anti-TWEAKR AK1D; AK1D) VH: QVQLVQSGAEVKKPGASVKVSCKASGYTFTDFIIAWVKQAPGQGLEWIGEIYPGTGRTYYSEKFRGKATLTADTSTSTAYMELSSLRSEDTAVYFCARRTIYYDYDGDYWGQGTLVTVSS VL: DIVMTQSPLSLPVTPGEPASISCRSSKSLLHSNGITYLYWYLQKPGQSPQLLIYQMSNLASGVPDRFSGSGSGTDFTLKISRVEAEDVGVYYCAHNLELPWTFGQGTKVEIKR | 9.10 |
| TPP-7006 (antibody, human IgG1, kappa, V domains shown, also called anti-TWEAKR AK1C; AK1C) VH: QVQLQQSGPELVKPGASVKMSCKASGYTFTDFIIAWVKQRTGQGLEWIGEIYPGTGRTYYSEKFRGKATLTADKSSNTAYMQLSSLTSVDSAVYFCARRTIYYDYDGDYWGQGTTLTVSS VL: DIVMTQAAFSNPVTLGTSASISCRSSKSLLHSNGITYLYWYLQKPGQSPQLLIYQMSNLASGVPDRFSSSGSGTDFTLRISRVEAEDVGVYYCAHNLELPWTFGGGTKLELKR | 9.27 |
| TPP-7005 (antibody, human IgG1, kappa, V domains shown, also called anti-TWEAKR AK1B; AK1B) VH: QVQLVQSGAEVKKPGASVKISCKVSGYTFTDFIIAWVKQAPGKGLEWIGEIYPGTGRTYYSEKFRGKATLTADKSTSTAYMELSSLRSEDTAVYYCARRTIYYDYDGDYWGQGTTVTVSS VL: DIVMTQSPLSLPVTPGEPASISCRSSKSLLHSNGITYLYWYLQKPGQSPQLLIYQMSNLASGVPDRFSSSGSGTDFTLKISRVEAEDVGVYYCAHNLELPWTFGGGTKVEIKR | 9.30 |

Here's the next entry for you.
Exercise: Look at this binder and give its reported pEC50. TPP-7075 (antibody, human IgG1, kappa, V domains shown) VH: QVQLVQSGAEVKKPGASVKVSCKASGYTFTDFIIAWVKQAPGQGLEWIGEIYPGTGRTYYSEKFRGKATLTADTSTSTAYMELSSLRSEDTAVYFCARRTIYYDYDGDYWGQGTLVTVSS VL: DIVMTQSPLSLPVTPGEPASISCRSSKSLLHSSGITYLYWYLQKPGQSPQLLIYQMSNLASGVPDRFSGSGSGTDFTLKISRVEAEDVGVYYCAHNLELPWTFGQGTKVEIKR
Key: 8.05
